The compounds below each have a reported IC50 tested on FBXL10 (Homo sapiens (Human)); the values come from various publications.

# value of IC50, FBXL10 (Homo sapiens (Human)), item CCN(CCN(C)C)C(=O)CNCc1cc(CNC(=O)C(F)(F)CC)ccn1 = > 2500 nM

Measured IC50 for this entry Cn1cnc(-c2cc(C(=O)O)ccn2)c1-c1ccc(Cl)cc1C(F)(F)F on FBXL10 (Homo sapiens (Human)): ≤ 100 nM

Recorded IC50 for O=C(O)c1ccnc(-c2cn(Cc3ccc(F)cc3)cn2)c1 on FBXL10 (Homo sapiens (Human)) was ≤ 100 nM

Item O=C(O)c1ccnc(-n2nc(C3(c4ccc(Cl)cc4)CC3)cc2O)c1 was tested on FBXL10 (Homo sapiens (Human)); the reported IC50 is < 100 nM

# value of IC50, FBXL10 (Homo sapiens (Human)), item O=S(=O)(c1ccc(-c2ccsc2)cc1)N1CCN=C1N1CCN(C2CCC2)CC1 = 0.021 nM
